# testSystem: UniProt O70536
# Sequence (O70536 whole entry): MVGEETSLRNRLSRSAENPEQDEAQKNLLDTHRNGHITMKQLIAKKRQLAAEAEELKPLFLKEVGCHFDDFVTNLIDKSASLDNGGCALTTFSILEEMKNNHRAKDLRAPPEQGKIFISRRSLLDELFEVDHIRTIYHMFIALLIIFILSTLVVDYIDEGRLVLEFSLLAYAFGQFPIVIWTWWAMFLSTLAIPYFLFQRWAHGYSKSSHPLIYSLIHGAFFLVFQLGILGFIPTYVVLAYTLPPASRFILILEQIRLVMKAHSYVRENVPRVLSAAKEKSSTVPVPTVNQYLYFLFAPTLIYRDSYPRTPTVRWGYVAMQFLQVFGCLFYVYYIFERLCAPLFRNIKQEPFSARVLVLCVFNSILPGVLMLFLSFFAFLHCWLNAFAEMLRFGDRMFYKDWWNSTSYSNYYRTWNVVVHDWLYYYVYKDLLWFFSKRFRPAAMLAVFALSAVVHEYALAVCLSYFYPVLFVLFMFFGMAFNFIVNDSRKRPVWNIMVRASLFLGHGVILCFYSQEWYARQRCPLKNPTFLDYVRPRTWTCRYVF
# methodNotes: In vitro inhibitory activity against acyl coenzyme A:cholesterol acyltransferase 1 of liver microsomes isolated from cholesterol-fed rats.
readoutKind: pIC50
One number for each entry, as −log10 of the molar value.

INPUT: Give measured pIC50 for CCCCCCCCCCCCn1nnc(C(C#N)C(=O)Nc2c(OC)cc(OC)cc2OC)n1 (stereo not given) (UniProt O70536).
OUTPUT: 4.87

INPUT: Give measured pIC50 for CCCCCCCCCCCCn1nnc(C(C(=O)Nc2c(OC)cc(OC)cc2OC)C2CCCCC2)n1 (stereo not given) (UniProt O70536).
OUTPUT: 7.55

INPUT: Give measured pIC50 for CCCCCCCCCCCCc1nnn(C(C(=O)Nc2c(C(C)C)cccc2C(C)C)c2ccccc2)n1 (stereo not given) (UniProt O70536).
OUTPUT: 7.82

INPUT: Give measured pIC50 for CCCCCCCCCCCCn1nnc(C2(C(=O)Nc3c(OC)cc(OC)cc3OC)CCCC2)n1 (UniProt O70536).
OUTPUT: 7.20

INPUT: Give measured pIC50 for CCCCCCCCCCCCn1nnc(CC(=O)Nc2c(C(C)C)cccc2C(C)C)n1 (UniProt O70536).
OUTPUT: 8.30

// for each molecule in input: emit pIC50
1. C=CCCCCCCCCCCn1nnc(C(C(=O)Nc2c(OC)cc(OC)cc2OC)c2ccccc2)n1 (stereo not given)
2. CCCCCCCCCCCCn1nnc(C(Cc2ccccc2)C(=O)Nc2c(OC)cc(OC)cc2OC)n1 (stereo not given)

OUTPUT:
1: 7.60; 2: 7.31

// for each molecule in input: emit pIC50
1. CCCCCCCCCCCCn1nnc(C(C(=O)Nc2c(OC)cc(OC)cc2OC)c2ccc(F)cc2)n1 (stereo not given)
2. CCCCCCCCCCCCn1nnc(C(F)C(=O)Nc2c(OC)cc(OC)cc2OC)n1 (stereo not given)

OUTPUT:
[7.44, 5.75]

----------
# System: Oryctolagus cuniculus
# methodNotes: Oral bioactivity expressed as %inhibition after 4 hours of drug administration (dose 25 mg/kg) in rabbit bioassay
# Assay type: functional
readoutKind: inhibition in vivo at 25 mg/kg
Lab note: write values as number then unit, every time.

Here's what some known entries look like.
INPUT: Consider the molecule CCCCCCCCCCCCc1nnn(C(C(=O)Nc2c(OC)cc(OC)cc2OC)c2ccccc2)n1 (stereo not given) . State its measured inhibition in vivo at 25 mg/kg.
OUTPUT: 0%

INPUT: Consider the molecule CCCCCCCCCCCCn1nnc(C(C(=O)Nc2c(C(C)C)cccc2C(C)C)c2ccccc2)n1 (stereo not given) . State its measured inhibition in vivo at 25 mg/kg.
OUTPUT: 96%

INPUT: Consider the molecule CCCCCCCCCCCCn1nnc(C(C(=O)Nc2c(OC)cc(OC)cc2OC)c2ccccc2)n1 (stereo not given) . State its measured inhibition in vivo at 25 mg/kg.
OUTPUT: 0%

INPUT: Consider the molecule CCCCCCCCCCCCn1nnc(C(Cc2ccccc2)C(=O)Nc2c(OC)cc(OC)cc2OC)n1 (stereo not given) . State its measured inhibition in vivo at 25 mg/kg.
OUTPUT: 0%

Proceed to the following item.
INPUT: Consider the molecule CCCCCCCCCCCCc1nnn(C(C(=O)Nc2c(C(C)C)cccc2C(C)C)c2ccccc2)n1 (stereo not given) . State its measured inhibition in vivo at 25 mg/kg.
OUTPUT: 91%

Attribution: ChEMBL document CHEMBL1129338
